Provenance of the data: patent US12459951B2

For each record, write down the corresponding inhibition at 20 µM.
molecular target: Rac-1 (Homo sapiens); construct: made in house; test: Ras GTP Binding Domain Inhibition Assay (Ras Superfamily Assay); conditions: read-out: Rac-1: % inh.

Quick note, inhibition at 20 µM for COCCOc1cc(Nc2nc(-c3nccn3C)nn3cc(-c4ccn(C(C)C)n4)c(C)c23)ncn1 [Compound 122] landed at 76 to 100%

Data point: COc1cc(Nc2nc(-c3nccn3C)nn3cc(-c4ccn(C(C)C)n4)c(C)c23)n[nH]1 [Compound 51] ; inhibition at 20 µM = 76 to 100%

Form: molecule = Cc1c(-c2ccn(C)n2)cn2nc(-c3nccn3C)nc(Nc3cc(-n4ccnc4C)ccn3)c12 [Compound 246] ; inhibition at 20 µM = 76 to 100%

inhibition at 20 µM for COCc1noc(Nc2nc(-c3nccn3C)nn3cc(-c4ccn(C(C)C)n4)c(C)c23)n1 [Compound 82] is 26 to 49%

The recorded inhibition at 20 µM for entry COc1ccnc(Nc2nc(-c3nccn3C)nn3cc(-c4ccn(C(C)C)n4)c(C)c23)n1 [Compound 53] equals 76 to 100%

inhibition at 20 µM measured on Cc1c(-c2ccn(C)n2)cn2nc(-c3nccn3C)nc(Nc3cc(OCCNC(=O)CCCC[C@H]4SC[C@H]5NC(=O)N[C@H]54)ccn3)c12 [Compound 186] = 76 to 100%

Recorded result, Cc1c(-c2ccn(C(C)C)n2)cn2nc(-c3nccn3C)nc(Nc3cc4n(n3)CCO4)c12 [Compound 91] , inhibition at 20 µM: 76 to 100%

Just so you know, measured inhibition at 20 µM for Cc1c(-c2ccn(C)n2)cn2nc(-c3nccn3C)nc(N)c12 [Compound 211] came out at 50 to 75%

GET /value?item= COc1cc(Nc2nc(-c3nccn3C)nn3cc(-c4ccn(C5CC5)n4)c(C)c23)ncn1 [Compound 135] &field=inhibition at 20 µM returns 76 to 100%

Note to self: inhibition at 20 µM recorded for Cc1c(-c2ccn(C(C)C)n2)cn2nc(-c3nccn3C)nc(Nc3cc(C4CC4)no3)c12 [Compound 69] was 1 to 25%

So for Cc1c(-c2ccn(C)n2)cn2nc(-c3nccn3C)nc(Nc3ccn(C4CC4)n3)c12 [Compound 111] , the logged inhibition at 20 µM turned out to be 26 to 49%

Lookup result for Cc1c(-c2ccn(C(C)C)n2)cn2nc(-c3nccn3C)nc(Nc3ccn(C(C)C)n3)c12 [Compound 72] ; measured inhibition at 20 µM: 76 to 100%

Please fill in: inhibition at 20 µM reported for Cc1c(-c2ccn(C)n2)cn2nc(-c3nccn3C)nc(Nc3cc(-c4cccnc4)[nH]n3)c12 [Compound 264] = 76 to 100%

Looking up COc1cc(Nc2nc(-c3ccccn3)nn3cc(-c4ccn(C(C)C)n4)c(C)c23)ncn1 [Compound 13] , I found its inhibition at 20 µM recorded as 0%

---

tested on: Erk1/2 phosphorylation; assay: Erk1/2 Phosphorylation Assay (western blot), Panc-1; type: cell-based, human; conditions: at 10 μM, * = activation
Result Type: % inh of Erk1/2 phosphorylation in Panc-1

Take a look at these entries with their results.
COc1ccc(Nc2nc(-c3nccn3C)nn3cc(-c4ccn(C(C)C)n4)c(C)c23)cn1 [Compound 71] | D* (85-100% activation)
COc1cccnc1Nc1nc(-c2nccn2C)nn2cc(-c3ccn(C(C)C)n3)c(C)c12 [Compound 89] | D* (85-100% activation)
COc1ccnc(Nc2nc(-c3nccn3C)nn3cc(-c4ccn(C)n4)c(C(=O)N4CCOCC4)c23)c1 [Compound 179] | D* (85-100% activation)
COc1cccc(-c2cn3nc(-c4nccn4C)nc(N[C@@H]4CC[C@H](OC)C4)c3c2-c2ccccc2)c1Cl (racemic) [Compound 33] | D (85-100% inhibition)
CO[C@@H]1C[C@H]1Nc1nc(-c2nccn2C)nn2cc(-c3ccncc3)c(-c3ccccc3)c12 (racemic) [Compound 197] | D* (85-100% activation)
COC[C@@H]1CC[C@@H]1CNc1nc(-c2nccn2C)nn2cc(-c3ccn(C(C)C)n3)c(C)c12 (racemic) [Compound 3] | D (85-100% inhibition)

Reported % inh of Erk1/2 phosphorylation in Panc-1 for Cc1c(-c2ccn(C(C)C)n2)cn2nc(-c3nccn3C)nc(Nc3nccc(OCCN(C)C)n3)c12 [Compound 96] was 0 (0% inhibition)
